Here the recorded Retention_time is given for each entry.
# PROTOCOL: Stability of the compound in simulated intestinal fluid assessed as retention time by micellar liquid chromatography
# Assay type: physicochemical
# RUN PARAMETERS: simulated gi fluid
Please state the figure in min; there is no need to write the unit.

COMPOUND STRUCTURE: Oc1ncnc2[nH]ncc12
Retention_time / min: 2.6

State its Retention_time: CCc1nc(O)c2c[nH]nc2n1
4.7

State its Retention_time: Cc1nc(O)c2c[nH]nc2n1
3

State its Retention_time: CCCc1nc2n[nH]cc2c(=O)[nH]1
7.8

====

# PROTOCOL: Intrinsic solubility of the compound in standard phosphate buffer at pH 6.8 at 37 degC after 24 hrs by shake-flask method
# Format: physicochemical
# RUN PARAMETERS: read-out: Intrinsic_solubility
REPORTED ENDPOINT: solubility thermodynamic at 24 h (µg/mL)
Please state the figure in µg/mL; there is no need to write the unit.

Some molecules with known solubility thermodynamic at 24 h results, for comparison:
COMPOUND STRUCTURE: Cc1nc(O)c2c[nH]nc2n1
solubility thermodynamic at 24 h, µg/mL: 2020

COMPOUND STRUCTURE: CCCc1nc2n[nH]cc2c(=O)[nH]1
solubility thermodynamic at 24 h, µg/mL: 2560

COMPOUND STRUCTURE: CCc1nc(O)c2c[nH]nc2n1
solubility thermodynamic at 24 h, µg/mL: 940

State its solubility thermodynamic at 24 h: Oc1ncnc2[nH]ncc12
900
